# assay-system: SCD1 (Rattus norvegicus (Rat))
# Sequence (P07308 whole entry): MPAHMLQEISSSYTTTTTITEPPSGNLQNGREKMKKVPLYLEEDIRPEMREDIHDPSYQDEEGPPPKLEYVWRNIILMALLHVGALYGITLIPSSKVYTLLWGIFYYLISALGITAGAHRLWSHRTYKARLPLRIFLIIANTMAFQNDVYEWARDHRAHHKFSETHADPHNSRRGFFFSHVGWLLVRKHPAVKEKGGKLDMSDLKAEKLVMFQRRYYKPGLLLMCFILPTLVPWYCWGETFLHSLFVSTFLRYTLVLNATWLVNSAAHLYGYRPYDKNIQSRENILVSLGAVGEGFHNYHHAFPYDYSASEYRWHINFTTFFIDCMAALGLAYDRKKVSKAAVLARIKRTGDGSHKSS
# assay-notes: SCD1 enzymatic assay in rat liver microsomes (RLM)
# Format: biochemical
# conditions-used: 1 μM test compound
Readings of inhibition at 1 µM for the listed compounds
# number then unit; no other words

Consider the worked cases shown below.
Query block: Determine from records and report inhibition at 1 µM for O=C(Nc1nc2c(s1)CNCC2)N1CCC(N2CCc3ccc(F)cc32)CC1
Result block: 91%

Query block: Determine from records and report inhibition at 1 µM for O=C(CO)N1CCc2nc(NC(=O)N3CCC(N4CCc5ccc(F)cc54)CC3)sc2C1
Result block: 92%

Query block: Determine from records and report inhibition at 1 µM for O=C(Nc1cccc(CO)c1)N1CCC(N2CCc3ccc(F)cc32)CC1
Result block: 61%

Others:
Query block: Determine from records and report inhibition at 1 µM for CCN1CCc2nc(NC(=O)N3CCC(N4CCc5ccc(F)cc54)CC3)sc2C1
Result block: 34%
